Values from patent US20120010075A1

Test system: Phytophthora infestans
Assay type: in vivo, Phytophthora infestans on tomato
ASSAY CONDITIONS: hydrazone 50 ppm + 50 μM CuCl2.2H2O, applied 24 h before inoculation, assessed 7 days after inoculation, tomato
The reader will find reported TLB % Control values listed item by item below.
Phrase the answer as number then unit, nothing more needed.

Completed entries (count: 5):
COMPOUND	TESTED SYSTEM	TLB % Control
O=C(N/N=C/c1cc(Cl)ccc1O)c1cccc(Br)c1	Phytophthora infestans	90.5%
O=C(N/N=C/c1cc(Cl)cc(Cl)c1O)c1cc(Br)ccc1Cl	Phytophthora infestans	79.7%
CC(C)c1ccc(C(=O)N/N=C/c2cc(Cl)cc(Cl)c2O)cc1 [Example 42]	Phytophthora infestans	60.0%
C/C(=N\NC(=O)c1cccc(Cl)c1)c1cc(Br)ccc1O	Phytophthora infestans	21.0%
O=C(N/N=C/c1cc(Cl)cc(Br)c1O)c1ccc(OC(F)(F)F)cc1	Phytophthora infestans	88.7%

Record lookup: for Phytophthora infestans, what TLB % Control belongs to "O=C(N/N=C/c1cc([N+](=O)[O-])ccc1O)c1ccccc1" ?
26.0%

Record lookup: for Phytophthora infestans, what TLB % Control belongs to "O=C(N/N=C/c1ccccc1O)c1ccc(Cl)cc1" ?
61.4%

Record lookup: for Phytophthora infestans, what TLB % Control belongs to "C/C(=N\NC(=O)Cc1ccc(F)cc1)c1cc(Cl)cc(Cl)c1O" ?
69.0%

Record lookup: for Phytophthora infestans, what TLB % Control belongs to "C/C(=N\NC(=O)c1ccc([N+](=O)[O-])cc1)c1ccccc1O" ?
37.0%

Record lookup: for Phytophthora infestans, what TLB % Control belongs to "O=C(N/N=C/c1cc(Cl)ccc1O)c1ccc([N+](=O)[O-])cc1" ?
94.0%

Record lookup: for Phytophthora infestans, what TLB % Control belongs to "O=C(N/N=C/c1cc(Br)cc(Br)c1O)c1cccc(Br)c1" ?
94.7%

Record lookup: for Phytophthora infestans, what TLB % Control belongs to "O=C(N/N=C/c1cc(Cl)cc([N+](=O)[O-])c1O)c1ccc(Cl)cc1" ?
56.1%

Record lookup: for Phytophthora infestans, what TLB % Control belongs to "C/C(=N\NC(=O)c1cccc(Br)c1)c1cc(Cl)cc(Cl)c1O" ?
91.0%

Record lookup: for Phytophthora infestans, what TLB % Control belongs to "Cc1ccc(C(=O)N/N=C/c2cc(Cl)cc(Cl)c2O)cc1" ?
81.3%

Record lookup: for Phytophthora infestans, what TLB % Control belongs to "O=C(N/N=C/c1cc(Br)ccc1O)c1ccccc1Oc1ccccc1" ?
25.0%

Record lookup: for Phytophthora infestans, what TLB % Control belongs to "O=C(N/N=C/c1cccc(F)c1O)c1ccccc1" ?
58.5%

Record lookup: for Phytophthora infestans, what TLB % Control belongs to "O=C(N/N=C/c1cc(Br)ccc1O)c1cc(Cl)ccc1Cl" ?
61.8%

Record lookup: for Phytophthora infestans, what TLB % Control belongs to "Cc1cccc(C(=O)N/N=C/c2cc(Cl)cc(Cl)c2O)c1" ?
81.2%

Record lookup: for Phytophthora infestans, what TLB % Control belongs to "CCOc1ccc(C(=O)N/N=C/c2cc(Cl)cc(Cl)c2O)cc1" ?
76.3%

* * *

System: Leptosphaeria nodorum (LEPTNO)
PROCEDURE SUMMARY: In vitro fungitoxicity of hydrazones with and without copper towards Leptosphaeria nodorum (Example 26)
Assay type: cell-based
ASSAY CONDITIONS: copper-plus medium (CuCl2 10 μM); test compound Concn. 0.05 μg/mL; 72 h at 25° C.
MEASURED QUANTITY: LEPTNO % Inhn. Plus Copper Observed (%)
Numbers only here, please. The scale is %.

STRUCTURE SMILES STRING	LEPTNO % Inhn. Plus Copper Observed [%]
C/C(=N\NC(=O)c1ccccc1)c1cccc(Cl)c1O	98.1
O=C(N/N=C/c1cc(Cl)cc(Br)c1O)c1ccc(F)cc1	96.1

Could you now consider this next molecule?
# LEPTNO % Inhn. Plus Copper Observed lookup, item "COc1ccc(C(=O)N/N=C(\C)c2cc(Br)cc(Br)c2O)cc1"
97.7
